- System: HCI09 (cells of a triple-negative luminal androgen receptor type breast cancer xenograft)
- test-summary: cell viability (% of vehicle); higher = less cytotoxic
- measurement-conditions: 10 µM; 72 h
Each record here notes measured cell viability.
Lab note: record just the number, no unit beside it.

Look over these answered cases.
• Cc1ccc(O)c(C(CCN(C(C)C)C(C)C)c2ccccc2)c1.O=C(O)C(O)C(O)C(=O)O (centres undefined) [Tolterodine tartrate] = 96.8
• CC(C)(O/N=C(\C(=O)N[C@@H]1C(=O)N2C(C(=O)[O-])=C(C[n+]3ccccc3)CS[C@H]12)c1csc(N)n1)C(=O)O [Ceftazidime] = 97.7
• CCC1=C(C)CN(C(=O)NCCc2ccc(S(=O)(=O)NC(=O)NC3CCC(C)CC3)cc2)C1=O (centres undefined) [Glimepiride] = 86.6

Data request: // lookup cell viability for OCCOc1ccc(C(=C(CCCl)c2ccccc2)c2ccccc2)cc1 [Ospemifene]
Data returned: 99.6

----------
Each record here notes measured cell viability.
- Test system: HCI16 (cells of a triple-negative basal-like breast cancer xenograft)
- test-summary: cell viability (% of vehicle); higher = less cytotoxic
- measurement-conditions: 10 µM; 72 h
Lab note: record just the number, no unit beside it.

Look over these answered cases.
• CCOC(=O)CC(=O)N1CCSC1COc1ccccc1OC (configuration not stated) = 127
• Cc1nc(-c2ccc(OCC(C)C)c(C#N)c2)sc1C(=O)O = 191
• COc1ccc(C(=O)CC(=O)c2ccc(C(C)(C)C)cc2)cc1 = 119
• Oc1ccc(C2CNCCc3c2cc(O)c(O)c3Cl)cc1 (configuration not stated) = 124
• CN(C)CCC=C1c2ccccc2Sc2ccc(Cl)cc21 = 83.8
• CC1COc2c(N3CCN(C)CC3)c(F)cc3c(=O)c(C(=O)O)cn1c23 (configuration not stated) = 133
• CC(C)(C)NCC(O)COc1cccc2c1CCC(O)=N2.Cl (configuration not stated) [Carteolol HCl] = 115
• CCCCOc1ccc(C(=O)CCN2CCCCC2)cc1.Cl [Dyclonine HCl] = 88.6
• Cc1c(F)cc(C(=O)NC2CC2)cc1-c1ccc(C(=O)NCC(C)(C)C)cn1 = 81.6
• O=C(O)CCc1nc(-c2ccccc2)c(-c2ccccc2)o1 = 122

Data request: // lookup cell viability for C[N+](C)(C)CC(=O)[O-]
Data returned: 116

Data request: What about CCCC(=O)OCOC(=O)C1=C(C)NC(C)=C(C(=O)OC)C1c1cccc(Cl)c1Cl (configuration not stated) [Clevidipine Butyrate] ?
Data returned: 88.1

Data request: What about CC(Cc1ccc(O)c(O)c1)(NN)C(=O)O (configuration not stated) ?
Data returned: 149

----------
Each record here notes measured cell viability.
- Test system: HCI11 (cells of an ER-positive luminal breast cancer xenograft)
- test-summary: cell viability (% of vehicle); higher = less cytotoxic
- measurement-conditions: 10 µM; 72 h
Structures can show the parent of a compound that is named as a salt.
Lab note: record just the number, no unit beside it.

Look over these answered cases.
* CC(NC(=O)C(O)C(C)C)C(=O)NC1C(=O)N(C)CCc2ccccc21 (configuration not stated) | 119
* NCCCCC(NC(CCc1ccccc1)C(=O)O)C(=O)N1CCCC1C(=O)O.O.O (configuration not stated) [Lisinopril dihydrate] | 113
* Cc1ccccc1N1C(=O)c2cc(S(N)(=O)=O)c(Cl)cc2NC1C (configuration not stated) | 57.9
* COC(=O)C=CC(=O)OC [Dimethyl Fumarate] | 95.4
* COC(=O)Nc1nc2ccc(S(=O)c3ccccc3)cc2[nH]1 (configuration not stated) | 93.1
* CC(=O)C1CCC2C3CC=C4CC(O)CCC4(C)C3CCC12C (configuration not stated) | 84.5
* CS(=O)(=O)OCCCCOS(C)(=O)=O | 105
* CC1CC2C3CCC4=CC(=O)C=CC4(C)C3(F)C(O)CC2(C)C1(O)C(=O)CO (configuration not stated) | 175
* CCOc1cc2ncc(C#N)c(Nc3ccc(OCc4ccccn4)c(Cl)c3)c2cc1NC(=O)C=CCN(C)C | 21.3
* Cc1cc(C)c2c(c1)C(N(Cc1cc(C(F)(F)F)cc(C(F)(F)F)c1)c1nnn(C)n1)CCCN2CC1CCC(C(=O)O)CC1 (configuration not stated) | 98.5

Data request: // lookup cell viability for CN1CCN(c2ccc3c(c2)NC(=C2C(=O)N=c4cccc(F)c4=C2N)N3)CC1
Data returned: 79

Data request: What about CCOc1nc2cccc(C(=O)OCc3oc(=O)oc3C)c2n1Cc1ccc(-c2ccccc2-c2nc(=O)o[nH]2)cc1 ?
Data returned: 94.2

Data request: What about CN(CCOc1ccc(CC2SC(=O)NC2=O)cc1)c1ccccn1 (configuration not stated) ?
Data returned: 153

Data request: What about O=C(O)c1cc(=O)[nH]c(=O)[nH]1 ?
Data returned: 93.2

Data request: What about CC(c1cc2ccccc2s1)N(O)C(N)=O (configuration not stated) ?
Data returned: 101

Data request: What about Cc1nnc(C(=O)NC(C)(C)c2nc(C(=O)NCc3ccc(F)cc3)c(O)c(=O)n2C)o1 ?
Data returned: 116

Data request: What about Nc1nc(=O)c2c([nH]1)NCC(CNc1ccc(C(=O)NC(CCC(=O)[O-])C(=O)[O-])cc1)N2C=O.O.O.O.O.O.[Ca+2] (configuration not stated) ?
Data returned: 83.9

Data request: What about Cc1ccc(C(=O)C(C)CN2CCCCC2)cc1.Cl (configuration not stated) [Tolperisone HCl] ?
Data returned: 92.5

Data request: What about COC(=O)N(C)c1c(N)nc(-c2nn(Cc3ccccc3F)c3ncccc23)nc1N ?
Data returned: 114

----------
- Test system: HCI09
- test-summary: cell viability (% of vehicle); higher = less cytotoxic
- measurement-conditions: 10 µM; 72 h
measured-endpoint: cell viability
Lab note: record just the number, no unit beside it.

Look over these answered cases.
* C1N2CN3CN1CN(C2)C3 | 101
* CC1CCOC2Cn3cc(C(=O)NCc4ccc(F)cc4F)c(=O)c(O)c3C(=O)N12 (stereo not given) | 139
* CCCN1CCCCC1C(=O)Nc1c(C)cccc1C.Cl (stereo not given) [Ropivacaine HCl] | 96
* Cc1nccn1CC1CCc2c(c3ccccc3n2C)C1=O.Cl (stereo not given) [Ondansetron HCl] | 93.6
* O=C(O)C=Cc1ccc(Cn2ccnc2)cc1 | 90.9

Data request: // lookup cell viability for CCC1OC(=O)CC(O)C(C)C(OC2OC(C)C(O)C(N(C)C)C2O)C(CCN2CC(C)CC(C)C2)CC(C)C(=O)C=CC(C)=CC1COC1OC(C)C(O)C(OC)C1OC (stereo not given)
Data returned: 82

Data request: What about CC(C)(Oc1ccc(CCNC(=O)c2ccc(Cl)cc2)cc1)C(=O)O [Bezafibrate] ?
Data returned: 95.5

Data request: What about Cc1cnc(C(=O)NCCc2ccc(S(=O)(=O)NC(=O)NC3CCCCC3)cc2)cn1 [Glipizide] ?
Data returned: 106

Data request: What about Cl.Cl.NC(=NCCCCCCN=C(N)N=C(N)Nc1ccc(Cl)cc1)N=C(N)Nc1ccc(Cl)cc1 [Chlorhexidine HCl] ?
Data returned: 89.7

Data request: What about Cl.O=C1CC2(CCCC2)CC(=O)N1CCCCN1CCN(c2ncccn2)CC1 [Buspirone HCl] ?
Data returned: 91.3

Data request: What about CCCc1cc(C(N)=S)ccn1 [Protionamide] ?
Data returned: 97.5

Data request: What about CC(=O)c1c(C)c2cnc(Nc3ccc(N4CCNCC4)cn3)nc2n(C2CCCC2)c1=O.O=S(=O)(O)CCO ?
Data returned: 78

Data request: What about Cc1c(O)cccc1C(=O)NC(CSc1ccccc1)C(O)CN1CC2CCCCC2CC1C(=O)NC(C)(C)C (stereo not given) ?
Data returned: 52.9

Data request: What about CC(=O)OC1(C(C)=O)CCC2C3C=C(Cl)C4=CC(=O)C5CC5C4(C)C3CCC21C (stereo not given) [Cyproterone Acetate] ?
Data returned: 73.1

Data request: What about O=c1[nH]c(=O)n(C2CCCO2)cc1F (stereo not given) ?
Data returned: 109

----------
- Tested on: HCI01 (cells of a triple-negative basal-like breast cancer xenograft)
- test-summary: cell viability of combination (% of vehicle); higher = less cytotoxic
- measurement-conditions: 1 µM; 72 h; partner dose: 10 nM
measured-endpoint: cell viability of combination
Lab note: record just the number, no unit beside it.

- CCOC(=O)C1=C(COCCN)NC(C)=C(C(=O)OC)C1c1ccccc1Cl.O=S(=O)(O)c1ccccc1 (configuration not stated) [Amlodipine Besylate] + CC(C)C[C@H](NC(=O)[C@H](CCc1ccccc1)NC(=O)CN1CCOCC1)C(=O)N[C@@H](Cc1ccccc1)C(=O)N[C@@H](CC(C)C)C(=O)[C@@]1(C)CO1: 97.1

# input for lookup
Data request: // lookup cell viability of combination for Cc1nc(NC(=O)N2CCCC2C(N)=O)sc1-c1ccnc(C(C)(C)C(F)(F)F)c1 (configuration not stated) + CC(C)C[C@H](NC(=O)[C@H](CCc1ccccc1)NC(=O)CN1CCOCC1)C(=O)N[C@@H](Cc1ccccc1)C(=O)N[C@@H](CC(C)C)C(=O)[C@@]1(C)CO1
Data returned: 62.6

Attribution: the supplement of paper PMC6992640
